- assay-target: Recombinant human HDAC3/NcoR2 (Homo sapiens)
- Construct: purchased BPS Biosciences
- Sequence (O15379 whole entry): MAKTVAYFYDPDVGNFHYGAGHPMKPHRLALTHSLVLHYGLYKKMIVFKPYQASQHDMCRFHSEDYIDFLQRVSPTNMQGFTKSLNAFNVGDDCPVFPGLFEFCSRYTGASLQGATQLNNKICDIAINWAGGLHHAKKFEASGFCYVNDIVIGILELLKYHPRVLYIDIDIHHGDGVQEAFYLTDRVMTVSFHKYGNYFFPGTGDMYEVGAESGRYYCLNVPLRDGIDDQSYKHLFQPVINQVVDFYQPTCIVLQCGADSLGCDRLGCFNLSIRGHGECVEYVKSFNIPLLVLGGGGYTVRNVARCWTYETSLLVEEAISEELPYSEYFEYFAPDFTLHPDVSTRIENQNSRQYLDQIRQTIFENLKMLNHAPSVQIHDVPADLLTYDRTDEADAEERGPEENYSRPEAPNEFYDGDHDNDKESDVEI
- Sequence (Q9Y618 395-489 partner limits assumed): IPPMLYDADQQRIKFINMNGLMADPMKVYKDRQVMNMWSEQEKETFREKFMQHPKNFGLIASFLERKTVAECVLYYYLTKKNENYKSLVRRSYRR
- assay: HDAC inhibitory assay, HDAC3 (Boc-Lys(Ac)-AMC substrate)
- Format: biochemical
- condition-description: test concentration not given; average of triplicate
Where a name gives a salt, the structure may show the parent alone.
recorded-metric: HDAC 3 inhibitory activity (%)

* O=C(NCc1ccc(-c2ccccc2)cc1)c1coc(-c2ccccc2O)n1 | 40.1
* O=C(NCCc1c[nH]c2ccccc12)c1coc(-c2ccccc2O)n1 | 18.9
* O=C(Nc1ccccc1)c1coc(-c2ccccc2O)n1 | 22.5
* O=C(CNC(=O)c1coc(-c2ccccc2O)n1)Nc1ccccc1 | 36.9
* O=C(Nc1ccccc1)c1ccc(CNC(=O)c2coc(-c3ccccc3O)n2)cc1 | 15.8
* O=C(NC(c1ccccc1)c1ccccc1)c1coc(-c2ccccc2O)n1 | 37.8
* O=C(O)c1ccc(CNC(=O)c2coc(-c3ccccc3O)n2)cc1 | 39.7
* O=C(NCc1cccc2ccccc12)c1coc(-c2ccccc2O)n1 | 32.3
* O=C(NCCC(c1ccccc1)c1ccccc1)c1coc(-c2ccccc2O)n1 | 37.5
* O=C(Nc1ccc(-c2ccccc2)cc1)c1coc(-c2ccccc2O)n1 | 30.2
* O=C(NCCCCNC(=S)NCCC(c1ccccc1)c1ccccc1)c1coc(-c2ccccc2O)n1 | 3.7
* O=C(NCCCCNCCC(c1ccccc1)c1ccccc1)c1coc(-c2ccccc2O)n1 [Example 12, hydrochloride] | 18.1
* O=C(NCCCCNC(=O)C(c1ccccc1)c1ccccc1)c1coc(-c2ccccc2O)n1 | 4.0
* O=C(NCCCCN1C(=O)c2ccccc2C1=O)c1coc(-c2ccccc2O)n1 | 11.0
* O=C(NCC(c1ccccc1)c1ccccc1)c1coc(-c2ccccc2O)n1 | 23.7
